B1: CPEB3 Ribozyme (parent)
chain: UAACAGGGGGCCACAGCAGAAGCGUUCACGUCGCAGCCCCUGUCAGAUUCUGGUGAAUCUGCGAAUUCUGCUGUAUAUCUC

Variants of: B1
experimental details: self-cleavage, relative activity (ratio to wild type); higher = more cleavage; in vitro, sequencing
self-cleavage below 0.3 gives 0.0; self-cleavage at or above it gives 1.0.

>  <mutation label>
U41G U72A

>  <discrete label>
0.0

$$$$
>  <mutation label>
U31G G33A

>  <discrete label>
1.0

$$$$
>  <mutation label>
G16A U69C

>  <discrete label>
0.0

$$$$
>  <mutation label>
C12U U31G

>  <discrete label>
1.0

$$$$
>  <mutation label>
C23A C38U

>  <discrete label>
1.0

$$$$
>  <mutation label>
A35U C40G

>  <discrete label>
0.0

$$$$
>  <mutation label>
C4U U67A

>  <discrete label>
1.0

$$$$
>  <mutation label>
C40U U72G

>  <discrete label>
1.0

$$$$
>  <mutation label>
A13C A15G

>  <discrete label>
1.0

$$$$
>  <mutation label>
C4U G10U

>  <discrete label>
0.0

$$$$
>  <mutation label>
C17G U58C

>  <discrete label>
0.0

$$$$
>  <mutation label>
A21G C34G

>  <discrete label>
0.0

$$$$
>  <mutation label>
U41A G63C

>  <discrete label>
0.0

$$$$
>  <mutation label>
A20U U26C

>  <discrete label>
0.0

$$$$
>  <mutation label>
C29U C38U

>  <discrete label>
0.0

$$$$
>  <mutation label>
A3G U48A

>  <discrete label>
1.0

$$$$
>  <mutation label>
A3G A15U

>  <discrete label>
1.0

$$$$
>  <mutation label>
A18C U60A

>  <discrete label>
0.0

$$$$
>  <mutation label>
U26A A28U

>  <discrete label>
1.0

$$$$
>  <mutation label>
C23A U72A

>  <discrete label>
0.0

$$$$
>  <mutation label>
G63U U66C

>  <discrete label>
1.0

$$$$
>  <mutation label>
C11A U67A

>  <discrete label>
0.0

$$$$
>  <mutation label>
A15U U76A

>  <discrete label>
1.0

$$$$
>  <mutation label>
A28U U54C

>  <discrete label>
1.0

$$$$
>  <mutation label>
A13U A18U

>  <discrete label>
1.0

$$$$
>  <mutation label>
A2G U51G

>  <discrete label>
1.0

$$$$
>  <mutation label>
U48C A57G

>  <discrete label>
1.0

$$$$
>  <mutation label>
G9A C68U

>  <discrete label>
0.0

$$$$
>  <mutation label>
C29G A45G

>  <discrete label>
0.0

$$$$
>  <mutation label>
U51C C59U

>  <discrete label>
1.0

$$$$
>  <mutation label>
C11G A15C

>  <discrete label>
1.0

$$$$
>  <mutation label>
A20U A65C

>  <discrete label>
0.0

$$$$
>  <mutation label>
A45G U69C

>  <discrete label>
1.0

$$$$
>  <mutation label>
A28U C32A

>  <discrete label>
0.0

$$$$
>  <mutation label>
A13G C39A

>  <discrete label>
0.0

$$$$
>  <mutation label>
G10U U67C

>  <discrete label>
0.0

$$$$
>  <mutation label>
C23G A75U

>  <discrete label>
0.0

$$$$
>  <mutation label>
A5G G33U

>  <discrete label>
1.0

$$$$
>  <mutation label>
U26A C37U

>  <discrete label>
1.0

$$$$
>  <mutation label>
C37G U69C

>  <discrete label>
0.0

$$$$
>  <mutation label>
U25C C50A

>  <discrete label>
0.0

$$$$
>  <mutation label>
A21G C29U

>  <discrete label>
0.0

$$$$
>  <mutation label>
U25G A45G

>  <discrete label>
0.0

$$$$
>  <mutation label>
A21U U72A

>  <discrete label>
0.0

$$$$
>  <mutation label>
U1C U48A

>  <discrete label>
0.0

$$$$
>  <mutation label>
G52A A65G

>  <discrete label>
1.0

$$$$
>  <mutation label>
U43C

>  <discrete label>
1.0

$$$$
>  <mutation label>
C32U A47G

>  <discrete label>
0.0

$$$$
>  <mutation label>
A18C A56U

>  <discrete label>
0.0

$$$$
>  <mutation label>
G7C A15G

>  <discrete label>
0.0

$$$$
>  <mutation label>
G19U C37A

>  <discrete label>
1.0

$$$$
>  <mutation label>
C27U A64U

>  <discrete label>
0.0

$$$$
>  <mutation label>
A18G G46U

>  <discrete label>
0.0

$$$$
>  <mutation label>
A18U C62U

>  <discrete label>
1.0

$$$$
>  <mutation label>
A2U C50U

>  <discrete label>
1.0

$$$$
>  <mutation label>
U26C U41G

>  <discrete label>
1.0

$$$$
>  <mutation label>
U49C A75U

>  <discrete label>
1.0

$$$$
>  <mutation label>
A18U G30U

>  <discrete label>
0.0

$$$$
>  <mutation label>
C11G U51A

>  <discrete label>
1.0

$$$$
>  <mutation label>
U25C G46C

>  <discrete label>
0.0

$$$$
>  <mutation label>
G22C U41C

>  <discrete label>
0.0

$$$$
>  <mutation label>
U26A A45U

>  <discrete label>
1.0

$$$$
>  <mutation label>
A2G G52A

>  <discrete label>
1.0

$$$$
>  <mutation label>
G42A G63U

>  <discrete label>
1.0

$$$$
>  <mutation label>
A20G U48C

>  <discrete label>
1.0

$$$$
>  <mutation label>
G7C A45G

>  <discrete label>
0.0

$$$$
>  <mutation label>
U43C G53A

>  <discrete label>
1.0

$$$$
>  <mutation label>
A57G A65C

>  <discrete label>
0.0

$$$$
>  <mutation label>
A28U A35U

>  <discrete label>
1.0

$$$$
>  <mutation label>
A2G U41G

>  <discrete label>
1.0

$$$$
>  <mutation label>
U58G A65G

>  <discrete label>
0.0

$$$$
>  <mutation label>
C12G G24A

>  <discrete label>
0.0

$$$$
>  <mutation label>
C23A A47G

>  <discrete label>
1.0

$$$$
>  <mutation label>
U1C U60C

>  <discrete label>
1.0

$$$$
>  <mutation label>
U72G A77G

>  <discrete label>
1.0

$$$$
>  <mutation label>
A45U G55A

>  <discrete label>
0.0

$$$$
>  <mutation label>
A20G U76G

>  <discrete label>
1.0

$$$$
